Values were extracted from paper PMC7997640.

Target: SARS-CoV-2 main protease (Severe acute respiratory syndrome coronavirus 2, UniProt P0DTD1)
Experimental Readout: IC50 (µM)
Answers are plain numbers, in µM.

Ask: Tell us which IC50 value is on record for `Cc1c(O)cccc1C(=O)N[C@@H](CSc1ccccc1)[C@H](O)CN1C[C@H]2CCCC[C@H]2C[C@H]1C(=O)NC(C)(C)C`
Reply: 37

###

Assay: in vitro
Settings: African green monkey
Consider the following compounds; for each one, report its CC50.

Examples with their reported CC50 follow.
Ask: Tell us which CC50 value is on record for `Cc1c(O)cccc1C(=O)N[C@@H](CSc1ccccc1)[C@H](O)CN1C[C@H]2CCCC[C@H]2C[C@H]1C(=O)NC(C)(C)C`
Reply: > 64 µM

Ask: Tell us which CC50 value is on record for `NC(=O)c1nc(F)c[nH]c1=O`
Reply: > 64 µM

Ask: Tell us which CC50 value is on record for `Cc1cccc(C)c1OCC(=O)N[C@@H](Cc1ccccc1)[C@@H](O)C[C@H](Cc1ccccc1)NC(=O)[C@H](C(C)C)N1CCCNC1=O`
Reply: 54.9 µM

Ask: Tell us which CC50 value is on record for CCN(CC)CCCC(C)Nc1ccnc2cc(Cl)ccc12 (centres unmarked)
Reply: > 64 µM

Now consider the entry below.
Ask: Tell us which CC50 value is on record for `CCC(CC)COC(=O)[C@H](C)N[P@](=O)(OC[C@H]1O[C@@](C#N)(c2ccc3c(N)ncnn23)[C@H](O)[C@@H]1O)Oc1ccccc1`
Reply: > 64 µM

###

System: SARS-CoV-2
Experimental Readout: antiviral activity on viral RNA

Ask: Tell us which antiviral activity on viral RNA value is on record for `CCC(CC)COC(=O)[C@H](C)N[P@](=O)(OC[C@H]1O[C@@](C#N)(c2ccc3c(N)ncnn23)[C@H](O)[C@@H]1O)Oc1ccccc1`
Reply: inhibited viral RNA

Ask: Tell us which antiviral activity on viral RNA value is on record for CCN(CC)CCCC(C)Nc1ccnc2cc(Cl)ccc12 (stereo not shown)
Reply: inhibited viral RNA

Ask: Tell us which antiviral activity on viral RNA value is on record for `Cc1cccc(C)c1OCC(=O)N[C@@H](Cc1ccccc1)[C@@H](O)C[C@H](Cc1ccccc1)NC(=O)[C@H](C(C)C)N1CCCNC1=O`
Reply: inhibited viral RNA

###

Assay: clinical
Conditions: human, po, 500 mg
Experimental Readout: Cmax (µM)
Answers are plain numbers, in µM.

Ask: Tell us which Cmax value is on record for Cc1c(O)cccc1C(=O)N[C@@H](CSc1ccccc1)[C@H](O)CN1C[C@H]2CCCC[C@H]2C[C@H]1C(=O)NC(C)(C)C [NFV, nelfinavir]
Reply: 9.32
